All values here come from PubChem BioAssay (NCI).

System: MCF7 breast
Assay: NCI tumour cell line growth inhibition, 48 h; in the data active = GI50 below about 0.43 µM; inactive = the rest
Pick from true (1) for active, false (0) for inactive when you respond.

Record excerpt, results attached:
# COMPOUND, CLASS
measured = [
    ("O=C1OCC2=C1C(c1ccc(Cl)c(Cl)c1)c1cc3c(cc1N2CCO)OCCO3 (stereo not drawn)", "true (1)"),
    ("O=C1OCC2=C1C(c1ccccc1)c1cc3c(cc1N2)OCO3 (stereo not drawn)", "true (1)"),
]

Test call, this compound: CO[C@H]1CC(O[C@@H]2/C(C)=C/C[C@@H]3C[C@@H](C[C@]4(C=C[C@H](C)[C@@H](C5CCCCC5)O4)O3)OC(=O)[C@@H]3C=C(C)[C@@H](O)[C@H]4OC/C(=C\C=C\[C@@H]2C)[C@]43O)O[C@@H](C)C1O[C@H]1C[C@H](OC)[C@@H](O)[C@H](C)O1 (stereo partly drawn) false (0)
